The reported numbers originate from ChEMBL document CHEMBL1151056.

system: Caenorhabditis elegans; experiment: In vitro inhibition against Caenorhabditis elegans motility for anthelmintic activity was measured; type: functional, organism-based
Measured Attribute: IC50 (µg/mL)
Enter your answer as a number in µg/mL; do not include the unit.

In the examples that follow, each entry is paired with its recorded IC50.
CCO[C@]1(C)CCN2CC34CC5(C(=O)Nc6c5ccc5c6OC=CC(C)(C)O5)C(C)(C)C3CC21C(=O)N4C (some centres undefined) : 2
C=CCO[C@]1(C)CCN2CC34CC5(C(=O)Nc6c5ccc5c6OC=CC(C)(C)O5)C(C)(C)C3CC21C(=O)N4C (some centres undefined) : 15
CN1C(=O)C23CC4C1(CN2CC[C@@]3(C)O[Si](C)(C)C)CC1(C(=O)Nc2c1ccc1c2OC=CC(C)(C)O1)C4(C)C (some centres undefined) : 3

[Q] Supply reported IC50 belonging to this compound: COCCOCO[C@]1(C)CCN2CC34CC5(C(=O)Nc6c5ccc5c6OC=CC(C)(C)O5)C(C)(C)C3CC21C(=O)N4C (some centres undefined)
[A] 20

[Q] Supply reported IC50 belonging to this compound: CN1C(=O)C23CC4C1(CN2CC[C@@]3(C)OCc1ccccc1)CC1(C(=O)Nc2c1ccc1c2OC=CC(C)(C)O1)C4(C)C (some centres undefined)
[A] 65

[Q] Supply reported IC50 belonging to this compound: CNC(=O)N(C)C(=O)O[C@]1(C)CCN2CC34CC5(C(=O)Nc6c5ccc5c6OC=CC(C)(C)O5)C(C)(C)C3CC21C(=O)N4C (some centres undefined)
[A] 60

[Q] Supply reported IC50 belonging to this compound: C#CCO[C@]1(C)CCN2CC34CC5(C(=O)Nc6c5ccc5c6OC=CC(C)(C)O5)C(C)(C)C3CC21C(=O)N4C (some centres undefined)
[A] 7.5

[Q] Supply reported IC50 belonging to this compound: CO[C@]1(C)CCN2CC34CC5(C(=O)Nc6c5ccc5c6OC=CC(C)(C)O5)C(C)(C)C3CC21C(=O)N4C (some centres undefined)
[A] 70

[Q] Supply reported IC50 belonging to this compound: CCCCO[C@]1(C)CCN2CC34CC5(C(=O)Nc6c5ccc5c6OC=CC(C)(C)O5)C(C)(C)C3CC21C(=O)N4C (some centres undefined)
[A] 5
